# assayed system: Lp-PLA2 (Mus musculus)
# Sequence (Q60963 22-440): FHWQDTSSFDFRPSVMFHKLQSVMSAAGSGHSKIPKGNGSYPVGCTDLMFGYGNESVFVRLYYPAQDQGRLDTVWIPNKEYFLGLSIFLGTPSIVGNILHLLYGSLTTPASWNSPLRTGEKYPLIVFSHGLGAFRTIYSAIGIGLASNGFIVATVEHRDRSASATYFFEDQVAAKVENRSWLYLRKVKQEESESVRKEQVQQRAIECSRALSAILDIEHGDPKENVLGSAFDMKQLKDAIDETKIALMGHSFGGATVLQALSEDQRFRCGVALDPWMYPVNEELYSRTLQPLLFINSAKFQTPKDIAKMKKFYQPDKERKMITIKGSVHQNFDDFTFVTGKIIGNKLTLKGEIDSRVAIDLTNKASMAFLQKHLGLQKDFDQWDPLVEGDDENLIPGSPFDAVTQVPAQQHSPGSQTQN
Each item that follows carries a reported IC50.

See these solved cases before continuing.
CC(C)[C@@H]1NC(=O)N(OC(=O)N2CCN(c3cccc(C(=O)N4CCCCC4)c3Cl)CC2)C1=O [Example 2] | 100 to 1000 nM
O=C(ON1C(=O)N[C@@H](Cc2ccccc2)C1=O)N1CCN(c2cccc(C(=O)N3CCCCC3)c2Cl)CC1 [Example 8] | < 100 nM
CN1C(=O)N(OC(=O)N2CCN(c3cccc(C(=O)N4CCCCC4)c3Cl)CC2)C(=O)[C@@H]1Cc1ccccc1 [Example 20] | < 100 nM

Consider the record given below.
Query: Which value of IC50 has been reported for O=C(ON1C(=O)N[C@@H](Cc2ccccc2)C1=O)N1CCN(c2cccc(C(=O)N3CCCC3)c2Cl)CC1 [Example 7] in the records?
Reply: < 100 nM

====

# assayed system: Lp-PLA2 (Mus musculus, UniProt Q60963)
# Construct: Mouse brain membrane proteomes (50 μL, 1.0 mg/mL total protein concentration) were preincubated; from tissue; host or cells: mouse brain membrane fraction
# assay protocol: In vitro competitive activity-based protein profiling (HT-01 probe, gel band PLA2G7)
# Format: biochemical
# condition summary: at 10 μM; mouse brain membrane proteomes
property name: inhibition at 10 µM (%)

CC(C)[C@H]1NC(=O)N(OC(=O)N2CCN(c3cccc(C(=O)N4CCCCC4)c3Cl)CC2)C1=O | 75
CC(C)[C@H]1NC(=O)N(OC(=O)N2CCN(c3cccc(C(=O)N4CCOCC4)c3Cl)CC2)C1=O | 75
O=C(ON1C(=O)N[C@@H](Cc2ccccc2)C1=O)N1CCCN(c2cccc(C(=O)N3CCCCC3)c2Cl)CC1 | 100
CC(C)[C@H]1NC(=O)N(OC(=O)N2CCN(c3cccc(C(=O)N4CCCC4)c3Cl)CC2)C1=O | 75

====

# assayed system: ABHD6 (Mus musculus, UniProt Q8R2Y0)
# Sequence (Q8R2Y0 1-336): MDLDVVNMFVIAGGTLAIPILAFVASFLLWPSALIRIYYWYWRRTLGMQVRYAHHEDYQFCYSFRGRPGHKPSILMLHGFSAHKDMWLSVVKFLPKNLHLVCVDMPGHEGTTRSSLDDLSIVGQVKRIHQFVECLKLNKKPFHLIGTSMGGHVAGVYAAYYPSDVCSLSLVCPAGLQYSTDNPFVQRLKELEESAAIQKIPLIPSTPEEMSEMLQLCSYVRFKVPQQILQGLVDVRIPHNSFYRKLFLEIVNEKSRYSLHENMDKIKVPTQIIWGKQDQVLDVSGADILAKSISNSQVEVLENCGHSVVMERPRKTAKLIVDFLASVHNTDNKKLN
pIC50: −log10 of the molar value.
Each item that follows carries a reported pIC50.

CN1CCN(C(=O)c2cccc(N3CCN(C(=O)ON4C(=O)N[C@@H](Cc5ccccc5)C4=O)CC3)c2Cl)CC1 [Example 14] | > 7.00
CC(C)[C@@H]1NC(=O)N(OC(=O)N2CCN(c3cccc(C(=O)N4CCOCC4)c3Cl)CC2)C1=O [Example 3] | 6.00 to 7.00
O=C(ON1C(=O)N[C@@H](Cc2ccccc2)C1=O)N1CCN(c2cc(C(=O)N3CCCCC3)ccc2Cl)CC1 [Example 17] | > 7.00
O=C(O)c1cccc(N2CCN(C(=O)ON3C(=O)N[C@@H](Cc4ccccc4)C3=O)CC2)c1Cl [Example 19] | < 6.00
O=C(ON1C(=O)N[C@@H](Cc2ccccc2)C1=O)N1CCN(c2cccc(C(=O)N3CCCC3)c2Cl)CC1 [Example 7] | > 7.00
CC(C)[C@H]1NC(=O)N(OC(=O)N2CCN(c3cccc(C(=O)N4CCCCC4)c3Cl)CC2)C1=O [Example 5] | 6.00 to 7.00
O=C(ON1C(=O)N[C@H](Cc2ccccc2)C1=O)N1CCN(c2cccc(C(=O)N3CCOCC3)c2Cl)CC1 [Example 12] | > 7.00

Query: Which value of pIC50 has been reported for CN(C)C(=O)c1cccc(N2CCN(C(=O)ON3C(=O)N[C@@H](Cc4ccccc4)C3=O)CC2)c1Cl [Example 16] in the records?
Reply: > 7.00
